B1: Steroid hormone receptor ERR2, residues 100 to 176; numbered along this chain, O95718 (parent)
chain: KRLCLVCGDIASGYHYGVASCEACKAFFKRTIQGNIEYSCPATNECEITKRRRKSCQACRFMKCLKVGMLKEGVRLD

variants of: B1; assay: abundance fitness (aPCA) (normalised: wild type 0, dead -1); higher = more abundant; growth selection in yeast, the domain comes from the species named; settings: Homo sapiens
observable: abundance fitness
Answer with a bare number; do not write a unit.

Please report the recorded abundance fitness for KRLCLVCGDIASGYHYGVASCEACKAFFKRTIQGNIEYSCPATNSCEITKRRRKSCQACRFMKCLKVGMLKEGVRLD . -0.149

Please report the recorded abundance fitness for KRLCLVCGDIASGYHYGVASCEAAKAFFKRTIQGNIEYSCPATNECEITKRRRKSCQACRFMKCLKVGMLKEGVRLD . -0.897

Please report the recorded abundance fitness for KRLCLVCGDIASGYHYGVASCEACKAFFKRTIQGNIEYSCPATNECEITKRRRKSCQACRFMKDLKVGMLKEGVRLD . -1.05

Please report the recorded abundance fitness for KRLCLVCGDIASGYHYGVASCEACKAFFKRTIQGNIEYSCPATNECEITKRRMKSCQACRFMKCLKVGMLKEGVRLD . 0.107

Please report the recorded abundance fitness for KRLCLVCGDIASGYHYGVASCEACKAFFKRTIQGNIEYSCPATNECNITKRRRKSCQACRFMKCLKVGMLKEGVRLD . -0.09

Please report the recorded abundance fitness for KRLCLVCGDIASGYHYGVASWEACKAFFKRTIQGNIEYSCPATNECEITKRRRKSCQACRFMKCLKVGMLKEGVRLD . -0.94

Please report the recorded abundance fitness for KRLCLVCGDIASGYHYGVASCEACKAFFKRTIQGNIEYSCPATNECCITKRRRKSCQACRFMKCLKVGMLKEGVRLD . -0.172

Please report the recorded abundance fitness for KRLCLVCGDIASGYHYGVASCEACKAFFKRTIQGNIEYSCPATNECEITKRRVKSCQACRFMKCLKVGMLKEGVRLD . -0.008

Please report the recorded abundance fitness for KRLCLVCGDIASGYHYGVASCEAKKAFFKRTIQGNIEYSCPATNECEITKRRRKSCQACRFMKCLKVGMLKEGVRLD . -1.07

Please report the recorded abundance fitness for KRLCLVCGDIASGYHYGVASCEACKAFFKRTIQGNIGYSCPATNECEITKRRRKSCQACRFMKCLKVGMLKEGVRLD . -0.122

Please report the recorded abundance fitness for KRLCLVCGDIASGYHYGVASCEACKAFFKRTIQGNIEYSCPATNECEITKRFRKSCQACRFMKCLKVGMLKEGVRLD . -0.056

Please report the recorded abundance fitness for KRLCLVCGDIASGYHYGVASCEACKAFFKRTIQGNIEYSCPATNECEITKRRRKWCQACRFMKCLKVGMLKEGVRLD . 0.263

Please report the recorded abundance fitness for KRLCLVCGDIASGYHYGVASCEACKAFFKRTIQGNIEYSCPATNVCEITKRRRKSCQACRFMKCLKVGMLKEGVRLD . -0.144

Please report the recorded abundance fitness for KRLCLVCGDIASGYHYGVASCEACKAFLKRTIQGNIEYSCPATNECEITKRRRKSCQACRFMKCLKVGMLKEGVRLD . -0.413

Please report the recorded abundance fitness for KRVCLVCGDIASGYHYGVASCEACKAFFKRTIQGNIEYSCPATNECEITKRRRKSCQACRFMKCLKVGMLKEGVRLD . -0.036

Please report the recorded abundance fitness for KRLCIVCGDIASGYHYGVASCEACKAFFKRTIQGNIEYSCPATNECEITKRRRKSCQACRFMKCLKVGMLKEGVRLD . -0.333

Please report the recorded abundance fitness for KRLCLVCGDIASGYHYGVASCEATKAFFKRTIQGNIEYSCPATNECEITKRRRKSCQACRFMKCLKVGMLKEGVRLD . -1

Please report the recorded abundance fitness for KRLCLVCWDIASGYHYGVASCEACKAFFKRTIQGNIEYSCPATNECEITKRRRKSCQACRFMKCLKVGMLKEGVRLD . -0.374

Please report the recorded abundance fitness for KRLCLVCGDIASGYHYGVASCEACKAFFKRTIQGNIEYSCPAANECEITKRRRKSCQACRFMKCLKVGMLKEGVRLD . 0.081

Please report the recorded abundance fitness for KRLCLVCGDIARGYHYGVASCEACKAFFKRTIQGNIEYSCPATNECEITKRRRKSCQACRFMKCLKVGMLKEGVRLD . -0.026

Please report the recorded abundance fitness for KRLCSVCGDIASGYHYGVASCEACKAFFKRTIQGNIEYSCPATNECEITKRRRKSCQACRFMKCLKVGMLKEGVRLD . -0.233

Please report the recorded abundance fitness for KRLCLVAGDIASGYHYGVASCEACKAFFKRTIQGNIEYSCPATNECEITKRRRKSCQACRFMKCLKVGMLKEGVRLD . -0.775
